- Tested on: HepG2 cells
- protocol-summary: High content imaging cytotoxicity parameters: selected cell count per valid field (SCC) and CMFDA cytoplasm average intensity
- condition-set: HepG2 cells, 48 h, CMFDA cytoplasm average intensity, with rat liver S9 (+S9)
Where a name gives a salt, the structure may show the parent alone.
reported-property: CMFDA +S9 highest conc. <50% cytotox. over control

1) CN(C)N=O [Dimethylnitrosamine]: 1000 µM
2) ClC(Cl)(Cl)C(Cl)(Cl)Cl [Hexachloroethane]: 1000 µM
3) CCCCC(CC)COP(=O)(OCC(CC)CCCC)OCC(CC)CCCC (stereo not drawn) [Tris(2-ethylhexyl)phosphate]: 1000 µM
4) Cc1ccc(N)cc1N [2,4-diaminotoluene]: 1000 µM
5) Nc1nc(N)nc(N)n1 [Melamine]: 1000 µM
6) CC(=O)Nc1ccc2c(c1)Cc1ccccc1-2 [2-Acetylaminofluorene]: 1000 µM
7) O=[As]O [Sodium arsenite]: 125 µM
8) CCN(N=O)C(N)=O [Ethylnitrosourea]: 1000 µM
9) COC(N)=O [Methyl carbamate]: 1000 µM
10) O=C1OC(=O)c2ccccc21 [Phthalic anhydride]: 1000 µM
11) Cn1c(N)nc2c3cccnc3ccc21 [IQ, 2-Amino-3methylimidazo[4,5-f]quinoline]: 125 µM
12) [Cl][Cd][Cl] [Cadmium chloride]: 62.5 µM
13) NC(N)=O [Urea]: 1000 µM
14) Cn1c(N)nc2ncc(-c3ccccc3)cc21 [PhIP•HCl]: 1000 µM
15) Nc1ccccc1C(=O)O [o-Anthranilic acid]: 1000 µM

====

- System: HepG2 cells
- protocol-summary: High content imaging cytotoxicity parameters: selected cell count per valid field (SCC) and CMFDA cytoplasm average intensity
- condition-set: HepG2 cells, 48 h, selected cell count per valid field, without metabolic activation (−S9)
Counter-ions that a name gives are not always drawn.
Reported SCC −S9 highest conc. <50% cytotox. over control values follow for various compounds
reported-property: SCC −S9 highest conc. <50% cytotox. over control (µM)

1. Cn1c(N)nc2ncc(-c3ccccc3)cc21 [PhIP•HCl]: 500
2. O=C1OC(=O)c2ccccc21 [Phthalic anhydride]: 1000
3. Nc1nc(N)nc(N)n1 [Melamine]: 1000
4. O=[As]O [Sodium arsenite]: 7.81
5. Cc1ccc(N)cc1N [2,4-diaminotoluene]: 1000
6. COC(N)=O [Methyl carbamate]: 1000
7. CCN(N=O)C(N)=O [Ethylnitrosourea]: 1000
8. Cn1c(N)nc2c3cccnc3ccc21 [IQ, 2-Amino-3methylimidazo[4,5-f]quinoline]: 1000
9. CCCCC(CC)COP(=O)(OCC(CC)CCCC)OCC(CC)CCCC (stereo not drawn) [Tris(2-ethylhexyl)phosphate]: 500
10. ClC(Cl)(Cl)C(Cl)(Cl)Cl [Hexachloroethane]: 1000
11. CN(C)N=O [Dimethylnitrosamine]: 1000
12. Nc1ccccc1C(=O)O [o-Anthranilic acid]: 1000
13. CC(=O)Nc1ccc2c(c1)Cc1ccccc1-2 [2-Acetylaminofluorene]: 1000
14. NC(N)=O [Urea]: 1000
15. [Cl][Cd][Cl] [Cadmium chloride]: 31.25

====

- Tested on: HepG2 cells
- protocol-summary: High content imaging cytotoxicity parameters: selected cell count per valid field (SCC) and CMFDA cytoplasm average intensity
- condition-set: human, 48 h
- Protocol: HepG2 cells (Order No. HB-8065, Lot. 58483209, ATCC, Manassas, USA) were cultured in DMEM/F12 with L-Glutamine and 15 mM Hepes supplemented with 10% (v/v) FBS, 1% (v/v) penicillin (10 kU/ml)/streptomycin (10 mg/ml) solution, 0.1% (v/v) gentamicin (50 mg/ml), and 1 mM sodium pyruvate at 37° C. and 5% CO2 in culture flasks. […] Image acquisition was performed on the ArrayScan VTI HCS Reader (Cellomics, Pittsburgh, USA) using a 20× objective. […]
Reported CMFDA +S9 highest conc. <50% cytotox. over control values follow for various molecules
reported-property: CMFDA +S9 highest conc. <50% cytotox. over control (µM)

1. COc1cc(/C=C/C(=O)CC(=O)/C=C/c2ccc(O)c(OC)c2)ccc1O [Curcumin]: 125
2. O=C1CCCCC1 [Cyclohexanone]: 1000
3. CCCC(O)C(CC)CO (stereo not drawn) [2-Ethyl-1,3-hexanediol]: 1000
4. Cc1noc(NS(=O)(=O)c2ccc(N)cc2)c1C [Sulfisoxazole]: 1000
5. CC(C)(C)c1cc(O)ccc1O [Tertiary-butylhydroquinone]: 1000
6. COc1cc([C@@H]2c3cc4c(cc3[C@@H](O[C@@H]3O[C@@H]5CO[C@@H](C)O[C@H]5[C@H](O)[C@H]3O)[C@H]3COC(=O)[C@H]23)OCO4)cc(OC)c1O [Etoposide]: 1000

====

- System: HepG2 cells
- protocol-summary: High content imaging cytotoxicity parameters: selected cell count per valid field (SCC) and CMFDA cytoplasm average intensity
- condition-set: human, 48 h
- Description: HepG2 cells (Order No. HB-8065, Lot. 58483209, ATCC, Manassas, USA) were cultured in DMEM/F12 with L-Glutamine and 15 mM Hepes supplemented with 10% (v/v) FBS, 1% (v/v) penicillin (10 kU/ml)/streptomycin (10 mg/ml) solution, 0.1% (v/v) gentamicin (50 mg/ml), and 1 mM sodium pyruvate at 37° C. and 5% CO2 in culture flasks. […] Image acquisition was performed on the ArrayScan VTI HCS Reader (Cellomics, Pittsburgh, USA) using a 20× objective. […]
Reported CMFDA −S9 highest conc. <50% cytotox. over control values follow for various molecules
reported-property: CMFDA −S9 highest conc. <50% cytotox. over control (µM)

1. CN(C)C(=O)Nc1cccc(C(F)(F)F)c1: 1000
2. COS(C)(=O)=O [Methylmethane sulfonate]: 500
3. CC(=O)[C@H]1CC[C@H]2[C@@H]3CCC4=CC(=O)CC[C@]4(C)[C@H]3CC[C@]12C: 62.5
4. CCCC(O)C(CC)CO (stereo not shown): 1000
5. O=C(N[C@H](CO)[C@H](O)c1ccc([N+](=O)[O-])cc1)C(Cl)Cl: 1000
6. O=C1CCCCC1: 1000
7. c1ccc2c(c1)ccc1ccccc12: 1000
8. Cc1noc(NS(=O)(=O)c2ccc(N)cc2)c1C: 1000
9. OC[C@@H](O)[C@@H](O)[C@H](O)[C@H](O)CO: 1000
10. CC(=O)O[C@H]1C(=O)[C@@]2(C)[C@H]([C@H](OC(=O)c3ccccc3)[C@]3(O)C[C@H](OC(=O)[C@H](O)[C@@H](NC(=O)c4ccccc4)c4ccccc4)C(C)=C1C3(C)C)[C@]1(OC(C)=O)CO[C@@H]1C[C@@H]2O: 1000
11. OCc1ccccc1: 1000
12. Nc1nc[nH]n1: 1000
13. NC(=S)N(C1CCCCC1)C1CCCCC1: 1000
14. CC1(C)S[C@@H]2[C@H](NC(=O)[C@H](N)c3ccccc3)C(=O)N2[C@H]1C(=O)O [Ampicillin trihydrate]: 1000
15. C=CCc1ccc(O)c(OC)c1: 1000
16. CC[C@H]1OC(=O)[C@H](C)[C@@H](O[C@H]2C[C@@](C)(OC)[C@@H](O)[C@H](C)O2)[C@H](C)[C@@H](O[C@@H]2O[C@H](C)C[C@H](N(C)C)[C@H]2O)[C@](C)(O)C[C@@H](C)C(=O)[C@H](C)[C@@H](O)[C@]1(C)O [Erythromycin stearate]: 62.5
